assay: Half life in cynomolgus monkey at 1 mg/kg, iv; format: ADME, organism-based, Macaca fascicularis; parameters: dose 1 mg/kg, route intravenous; details: in vivo
quantity.kind: half-life (min)
Give the quantity in min, number only.

**Query** Name the recorded half-life of the item `CC(C)(C)c1csc(NC(=O)c2ccn3c(=O)c(/C=C/c4nnn[nH]4)c(N4CCC[C@@H](OC(=O)NCC[N+](C)(C)CC(=O)[O-])C4)nc3c2)n1` in your answer.
**Result** 16.8

---

test: AUC (0 to infinity) in Sprague-Dawley rat at 1.25 mg/kg, iv; type: ADME, organism-based; set-up: time infinity, dose 1.25 mg/kg, route intravenous; details: plasma
quantity.kind: AUC(0-inf) (ng·h/mL)
Give the quantity in ng·h/mL, number only.

**Query** Name the recorded AUC(0-inf) of the item `CC(C)(C)c1csc(NC(=O)c2ccn3c(=O)c(/C=C/c4nnn[nH]4)c(N4CCC[C@@H](OC(=O)NCC[N+](C)(C)CC(=O)[O-])C4)nc3c2)n1` in your answer.
**Result** 486
